Assign remaining at 1 h, 10 µM to each entry below.
test: Peptide stability in simulated gastric fluid (SGF); type: in vitro ADME; settings: pig, 1 h, pH 1.2, pepsin, 37° C.

SMILES	remaining at 1 h, 10 µM
CNC(=O)[C@H](Cc1cccnc1)NC(=O)[C@H](CCN)NC(=O)[C@@H]1CCC(=O)NCc2ccc(cc2)CC(=O)N[C@@H](CO)C(=O)N[C@H]2CCC(=O)NCC[C@H](NC(=O)[C@H](CCC(N)=O)NC(=O)[C@H](Cc3c[nH]c4ccccc34)NC2=O)C(=O)N[C@@H](Cc2ccc(OCCN)cc2)C(=O)N[C@@H](Cc2ccc3ccccc3c2)C(=O)N[C@@](C)(CC(C)C)C(=O)N1	91%

As a next step, examine the molecule that follows.
The reported value for "CNC(=O)[C@H](Cc1cccnc1)NC(=O)[C@H](CCN)NC(=O)[C@@H]1CCC(=O)NCc2ccc(cc2)CC(=O)N[C@@H](C)C(=O)N[C@H]2CCC(=O)NCC[C@H](NC(=O)[C@H](CCC(N)=O)NC(=O)[C@H](Cc3c[nH]c4ccccc34)NC2=O)C(=O)N[C@@H](Cc2c[nH]c3ncccc23)C(=O)N[C@@H](Cc2ccc3ccccc3c2)C(=O)NC(C)(C)C(=O)N1" in terms of remaining at 1 h, 10 µM is 105%

###

Task for the reader: assign each of the following compounds its reported remaining at 4 h, 10 µM.
assay: Peptide stability in simulated intestinal fluid (SIF); format: in vitro ADME; conditions: pig, simulated intestinal fluid; SIF, 4 h, pH 6.8, pancreatin, 37° C., 10 μM; read-out: SIF (% remaining 4 h)
*1 amine or outer side, *2 acyl side, *3 side chain or, on linkers, in order; H or OH if unused. Where a SMILES comes first, the peptide text is derived from it. Bridges are numbered along the chain shown (N, C = ends). [ ]: non-standard residue; d: D form. 2Nal = N[C@@H](Cc1ccc2ccccc2c1)C(=O)O; AEF = NCCOc1ccc(C[C@H](N)C(=O)O)cc1; X1 = O=C(Cc1ccc(CN[*:1])cc1)[*:2]; 3Pal = N[C@@H](Cc1cccnc1)C(=O)O; αMeL = CC(C)C[C@](C)(N)C(=O)O; Dab = NCC[C@H](N)C(=O)O
Give bare numbers, in %.

COMPOUND	remaining at 4 h, 10 µM / %
CNC(=O)[C@H](Cc1cccnc1)NC(=O)[C@H](CCN)NC(=O)[C@@H]1CCC(=O)NCc2ccc(cc2)CC(=O)N[C@@H](C)C(=O)N[C@H]2CCC(=O)NCC[C@H](NC(=O)[C@H](CCC(N)=O)NC(=O)[C@H](Cc3c[nH]c4ccccc34)NC2=O)C(=O)N[C@@H](Cc2ccc(OCCN)cc2)C(=O)N[C@@H](Cc2c[nH]c3ncccc23)C(=O)NC(C)(C)C(=O)N1 [Compound 44]	91
CNC(=O)[C@H](Cc1cccnc1)NC(=O)[C@H](CCN)NC(=O)[C@@H]1CCC(=O)NCc2ccc(cc2)CC(=O)N[C@@H](Cc2ccccc2)C(=O)N[C@H]2CCC(=O)NCC[C@H](NC(=O)[C@H](CCC(N)=O)NC(=O)[C@H](Cc3c[nH]c4ccccc34)NC2=O)C(=O)N[C@@H](Cc2ccc(OCCN)cc2)C(=O)N[C@@H](Cc2ccc3ccccc3c2)C(=O)N[C@@](C)(CC(C)C)C(=O)N1 [Compound 21] ([X1]FEWQ[Dab][AEF][2Nal][αMeL]E[Dab][3Pal]-NHMe; lactam 3-6, N-10)	57

Quick note, remaining at 4 h, 10 µM for CNC(=O)[C@H](Cc1cccnc1)NC(=O)[C@H](CCN)NC(=O)[C@@H]1CCC(=O)NCc2ccc(cc2)CC(=O)N[C@@H](C)C(=O)N[C@H]2CCC(=O)NCC[C@H](NC(=O)[C@H](CCC(N)=O)NC(=O)[C@H](Cc3c[nH]c4ccccc34)NC2=O)C(=O)N[C@@H](Cc2c[nH]c3c(F)cccc23)C(=O)N[C@@H](Cc2ccc3ccccc3c2)C(=O)NC(C)(C)C(=O)N1 [Compound 47] landed at 92
